Just for reference, patent US9175906B2 is where these values come from.

Give measured PSA of bulk drug for each item. Keep answers brief.
methodDescription: Particle size analysis (Beckman Coulter Counter) after redispersion in water
Format: physicochemical
conditionNotes: bulk drug powder as received, redispersed in water
Write it as a number; the unit microns goes unstated.

Given the compound NC(=O)N1c2ccccc2C=Cc2ccccc21 [Carbamazepine] , write its reported PSA of bulk drug. 391.4

Given the compound C[C@]12C=CC(=O)C=C1CC[C@@H]1[C@@H]2C(=O)C[C@@]2(C)[C@H]1CC[C@]2(O)C(=O)CO , write its reported PSA of bulk drug. 3.263

Given the compound CC(C(=O)O)c1cccc(C(=O)c2ccccc2)c1 (stereo not drawn) , write its reported PSA of bulk drug. 42.73

Given the compound CC1(C)O[C@@H]2C[C@H]3[C@@H]4CCC5=CC(=O)C=C[C@]5(C)[C@@]4(F)[C@@H](O)C[C@]3(C)[C@]2(C(=O)CO)O1 [Triamcinalone Acetonide] , write its reported PSA of bulk drug. 7.707

Given the compound C#C[C@]1(O)CC[C@H]2[C@@H]3CCC4=Cc5oncc5C[C@]4(C)[C@H]3CC[C@@]21C , write its reported PSA of bulk drug. 24.86

Given the compound CC(=O)OCC(=O)[C@@]1(O)CC[C@H]2[C@@H]3CCC4=CC(=O)CC[C@]4(C)[C@H]3[C@@H](O)C[C@@]21C [Hydrocortisone Acetate] , write its reported PSA of bulk drug. 17.07
